From: the supplement of paper PMC11208160

Entries and their measured recombinant UMI read abundance (log10) follow.
Test: recombinant UMI read abundance after kanamycin selection (control-corrected) (log10(CPM+1)); higher = more efficient recombination; extreme values may be limits of the assay; sequences stand for … in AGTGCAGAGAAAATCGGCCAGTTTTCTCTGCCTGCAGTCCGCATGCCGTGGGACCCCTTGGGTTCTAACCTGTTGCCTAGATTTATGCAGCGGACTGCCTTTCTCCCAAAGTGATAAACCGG…AGGTTGGTTTCACT; site = the 11-nt donor;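 also: IS621 bridge recombinase in Escherichia coli cells against a fixed T5 target plasmid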

Input sequence | recombinant UMI read abundance (log10)
GCTAAGCCATGGACCGGTTTTCCCGGTAATCCGTATTTGGG (site GCGAAGCCTCC) | 0.00564
ACAGATCCATGGACCGGTTTTCCCGGTAATCCGTATTTGAC (site ACAGATCCTGT) | 0.651
GAGCTCACATGGACCGGTTTTCCCGGTAATCCGTATTTGAT (site AAGCTCACTAT) | 1.48
CTTGTTCCATGGACCGGTTTTCCCGGTAATCCGTATTTGGT (site TTTGTTCCTAC) | 0.0168
GAAGATTCATGGACCGGTTTTCCCGGTAATCCGTATTTGTA (site GAAGATTCTTA) | 2.5
CTAGTATCATGGACCGGTTTTCCCGGTAATCCGTATTTGAC (site CTGGTTTCTGT) | 0
CAAGCAGCATGGACCGGTTTTCCCGGTAATCCGTATTTGCT (site GAAGCAGCTAG) | 0.0166
AGGTTGCCATGGACCGGTTTTCCCGGTAATCCGTATTTGTG (site AGGTTACCTCA) | 0.00238
GATCTCTCATGGACCGGTTTTCCCGGTAATCCGTATTTGAT (site GATCTCTCTAT) | 0.578
GCGAGCTCATGGACCGGTTTTCCCGGTAATCCGTATTTGGG (site GCGAGCTCTCC) | 0.714
CCATATGCATGGACCGGTTTTCCCGGTAATCCGTATTTGGC (site CCATATGCTGC) | 0.0195
GTGGAGGCATGGACCGGTTTTCCCGGTAATCCGTATTTGTC (site GTGGAGGCTAA) | 0.657
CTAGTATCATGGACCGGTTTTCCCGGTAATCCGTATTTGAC (site CTAGTACCTGC) | 0
AGCCTAGCATGGACCGGTTTTCCCGGTAATCCGTATTTGGT (site AGCCTAGCTAC) | 0
CCTACAGCATGGACCGGTTTTCCCGGTAATCCGTATTTGAT (site CCTACAGCTAT) | 0.00631
CTACTAACATGGACCGGTTTTCCCGGTAATCCGTATTTGGC (site CTACTAACTGC) | 2.51
CCTAAAGCATGGACCGGTTTTCCCGGTAATCCGTATTTGAT (site CCTAAAGCTAT) | 0.14
TACATATCATGGACCGGTTTTCCCGGTAATCCGTATTTGGG (site TACATATCTCC) | 0
TAATGAGCATGGACCGGTTTTCCCGGTAATCCGTATTTGGT (site TAATGAGCTGC) | 0
TAGAATACATGGACCGGTTTTCCCGGTAATCCGTATTTGCG (site TAGAATACTCG) | 2.06
GGCCGTACATGGACCGGTTTTCCCGGTAATCCGTATTTGCT (site AGCCGTACTAG) | 0.00424
GCCACGACATGGACCGGTTTTCCCGGTAATCCGTATTTGTA (site GCCACGTCTTA) | 0.283
TAAGCGCCATGGACCGGTTTTCCCGGTAATCCGTATTTGTG (site TAAGCGCCTCA) | 0.248
GGTTGGACATGGACCGGTTTTCCCGGTAATCCGTATTTGAC (site GGTTGGACTGT) | 1.49
GATGACTCATGGACCGGTTTTCCCGGTAATCCGTATTTGGT (site GATGACTCTAC) | 2.49
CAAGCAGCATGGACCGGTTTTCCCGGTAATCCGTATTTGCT (site CAAGCAGCTAG) | 1.84
AACGTATCATGGACCGGTTTTCCCGGTAATCCGTATTTGCA (site AACGTATCTTG) | 2.73
CCGTTAGCATGGACCGGTTTTCCCGGTAATCCGTATTTGTC (site CCGTTAGCTTA) | 0.396
CTTGAAACATGGACCGGTTTTCCCGGTAATCCGTATTTGCA (site CTCGAAACTTG) | 0.00453
CGCGCTCCATGGACCGGTTTTCCCGGTAATCCGTATTTGTC (site CGCGCTCCTGA) | 1.94
CGTGGAACATGGACCGGTTTTCCCGGTAATCCGTATTTGTT (site CGTGGAACTAG) | 0.951
TTAGCTGCATGGACCGGTTTTCCCGGTAATCCGTATTTGGG (site TTAGCTGCTCC) | 0.0113
AGCTCAGCATGGACCGGTTTTCCCGGTAATCCGTATTTGGG (site GGCTCAGCTCC) | 0.0255
TTAGGTGCATGGACCGGTTTTCCCGGTAATCCGTATTTGGT (site TTAGGTGCTAC) | 1.17
ACATCTGCATGGACCGGTTTTCCCGGTAATCCGTATTTGGT (site ACATCTGCTAC) | 2.1
CATATTGCATGGACCGGTTTTCCCGGTAATCCGTATTTGCA (site CATATTGCTTG) | 0
